# Tested on: Phosphorylation of ERK1/2 in A549 cells
# TEST_SUMMARY: Phospho-ERK1/2 MSD Assay (A549)
# Assay type: cell-based
# DETAILS: Homo sapiens, A549, 4 h, read-out: pERK IC50 (4 h, A549), 4 h compound treatment
pIC50: −log10 of the molar value.
PROPERTY: pIC50

[
  {
    "MOLECULAR_STRING": "C=CC(=O)N1CC(NC(=O)Cn2c(C)c(C(=O)N3CCc4c(cccc4OC)C3)c3cc(Br)ccc32)C1",
    "TEST_TARGET": "Phosphorylation of ERK1/2 in A549 cells",
    "TEST_VALUE": "< 4.00"
  }
]

Would you be so kind as to report pIC50 for each listed record?
1. C=CC(=O)N1CC(NC(=O)Cn2cc(C(=O)NCCCc3nc(C)cs3)c3cc(Br)ccc32)C1
2. C=CC(=O)N1CC(NC(=O)Cn2c(C3CC3)c(C(=O)N3CCCC(C)(C)C3)c3cc(Cl)cc(C)c32)C1
3. C=CC(=O)N1CC(N(C)C(=O)Cn2c(C3CC3)c(C(=O)N3CCc4c(cccc4OC)C3)c3cc(Cl)cc(C)c32)C1
4. C=CC(=O)N1CC(NC(=O)Cn2cc(C(=O)N3CCN(c4ccc(C)cn4)CC3)c3cc(Br)ccc32)C1
5. C=CC(=O)N1CC(NC(=O)Cn2c(C3CC3)c(C(=O)N3CCc4c(ccnc4OC)C3)c3cc(Cl)cc(C)c32)C1
6. C=CC(=O)N1CC(NC(=O)Cn2c(C3CC3)c(C(=O)N3CCOC(C)(C)C3)c3cc(Cl)cc(C)c32)C1

< 4.00
4.44
4.13
< 4.00
< 4.00
< 4.00

====

# TEST_TARGET: GDP-bound KRAS protein (aa 1-169), containing both G12C and C118A amino acid substitutions (Homo sapiens (Human), UniProt P01116, C118A/G12C)
# Sequence (P01116 other isoform, or with tags, fused parts or gaps G12C/C118A): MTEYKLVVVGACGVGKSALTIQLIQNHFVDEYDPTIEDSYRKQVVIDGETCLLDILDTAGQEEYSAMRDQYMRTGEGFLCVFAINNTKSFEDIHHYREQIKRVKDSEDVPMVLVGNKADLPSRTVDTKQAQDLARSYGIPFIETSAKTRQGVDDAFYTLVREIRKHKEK
# TEST_SUMMARY: Coupled Nucleotide Exchange Assay
# Assay type: biochemical
# DETAILS: first Coupled Exchange column; compound pre-incubation probably 5 min (rest of head not shown; b435 lists 5 min, 2 hours or 20 hours); read-out: Coupled Exchange IC50
# Description: For compounds in Table 9, the following assay conditions were employed: Coupled Nucleotide Exchange Assay: The assay plates were then read on a PerkinElmer EnVision Multilabel Reader, using AlphaScreen® technology, and data were analyzed using a 4-parameter logistic model to calculate IC50 values.
What IC50 was measured for each of the following?

Below, 5 compounds whose answers are already recorded.
[
  {
    "COMPOUND": "C=CC(=O)N1CC(NC(=O)Cn2c(C)c(-c3cnccc3C3=CCCCC3)c3cc(Cl)cc(C)c32)C1 [Example 335]",
    "IC50": "0.8 µM"
  },
  {
    "COMPOUND": "C=CC(=O)N1CC(NC(=O)Cn2ccc3c(C)c(Br)ccc32)C1 [Example 349]",
    "IC50": "> 250 µM"
  },
  {
    "COMPOUND": "C=CC(=O)N1CC(N(C)C(=O)Cn2ccc3cc(Cl)ccc32)C1 [Example 358]",
    "IC50": "> 250 µM"
  },
  {
    "COMPOUND": "C=CC(=O)N1CC(NC(=O)Cn2c(C)c(-c3cncnc3C3CCCCC3)c3cc(Cl)cc(C)c32)C1 [Example 342]",
    "IC50": "0.66 µM"
  },
  {
    "COMPOUND": "C=CC(=O)N1CC(n2nncc2Cn2ccc3cc(Br)ccc32)C1 [Example 359]",
    "IC50": "> 250 µM"
  }
]

For each of the items listed, what is its IC50?
1. C=CC(=O)N1C[C@H](NC(=O)Cn2ccc3cc(Br)ccc32)[C@@H]1C [Example 363]
2. C=CC(=O)N1CC(N(C)C(=O)Cn2ccc3cc(Br)cc(C)c32)C1 [Example 351]

1. > 250 µM
2. > 250 µM

Quick check: IC50 of C=CC(=O)N1CC(CO)(N(C)C(=O)Cn2ccc3cc(Br)ccc32)C1 [Example 354] ? > 250 µM

====

# System: Phosphorylation of ERK1/2 in A549 cells
# TEST_SUMMARY: Phospho-ERK1/2 MSD Assay (A549)
# Assay type: cell-based
# DETAILS: Homo sapiens, A549, 4 h, read-out: pERK IC50 (4 h, A549), 4 h compound treatment
pIC50: −log10 of the molar value.
PROPERTY: pIC50

[
  {
    "COMPOUND": "C=CC(=O)N1CC(NC(=O)Cn2c(C3CC3)c(C(=O)N3CCOC4(CCC4)C3)c3cc(Cl)cc(C)c32)C1",
    "pIC50": "< 4.00"
  },
  {
    "COMPOUND": "C=CC(=O)N1CC(NC(=O)Cn2cc(C(=O)N3CCc4c(Br)cc(C)cc4C3)c3cc(Cl)cc(Cl)c32)C1",
    "pIC50": "< 4.00"
  },
  {
    "COMPOUND": "C=CC(=O)N1CC(NC(=O)Cn2cc(C(=O)N3CCN(c4cc(C)ccn4)CC3)c3cc(Br)ccc32)C1",
    "pIC50": "< 4.00"
  }
]

Provide pIC50 for all items below, preserving their order.
1. C=CC(=O)N1CC(NC(=O)Cn2cc(C(=O)N3CCc4c(C#N)cccc4C3)c3cc(Br)ccc32)C1
2. C=CC(=O)N1CC(NC(=O)Cn2cc(C(=O)NCCc3nccs3)c3cc(Br)ccc32)C1
3. C=CC(=O)N1CC(N(C)C(=O)Cn2c(CC)c(C(=O)N3CCN(c4ccc(C#N)cn4)C[C@H]3C)c3cc(Cl)cc(C)c32)C1
4. C=CC(=O)N1CC(NC(=O)Cn2cc(C(=O)N3CCc4c(ccnc4OC)C3)c3cc(Br)ccc32)C1
5. C=CC(=O)N1CC(NC(=O)Cn2cc(C(=O)NCCc3c(OC)ccc4ccccc34)c3cc(Br)ccc32)C1
6. C=CC(=O)N1CC(N(C)C(=O)Cn2c(C)c(C(=O)N3CCN(c4ccc(Br)cn4)CC3)c3cc(Br)ccc32)C1
7. C=CC(=O)N1CC(NC(=O)C(C)n2c(C)c(C(=O)N3CCc4c(cccc4OC)C3)c3cc(Cl)ccc32)C1 (centres unmarked)

["< 4.00", "< 4.00", 4.06, "< 4.00", "< 4.00", 4.56, 4.32]

====

# TEST_TARGET: GDP-bound KRAS protein (aa 1-169), containing both G12C and C118A amino acid substitutions (Homo sapiens (Human), UniProt P01116, C118A/G12C)
# TEST_SUMMARY: Coupled Nucleotide Exchange Assay
# Type: biochemical
# DETAILS: read-out: Coupled Exchange IC50 (20 h); 20 h compound pre-incubation
pIC50: −log10 of the molar value.
The threshold is inclusive: pIC50 of exactly 6 counts as 1; values below receive -1.

These solved cases illustrate the format of a correct answer.
[
  {
    "COMPOUND": "C=CC(=O)N1CC(NC(=O)Cn2cc(C(=O)C(=O)O)c3ccccc32)C1 [Example 201]",
    "ASSIGNED_LABEL": -1
  },
  {
    "COMPOUND": "C=CC(=O)N1CC(NC(=O)Cn2ccc3cccc(Cl)c32)C1 [Example 203]",
    "ASSIGNED_LABEL": -1
  },
  {
    "COMPOUND": "C=CC(=O)N1CC(NC(=O)Cn2cc(C(=O)N3CCc4ccc(C)cc4C3)c3cc(Br)ccc32)C1 [Example 122]",
    "ASSIGNED_LABEL": 1
  },
  {
    "COMPOUND": "C=CC(=O)N1CC(NC(=O)Cn2c(-c3ncccn3)cc3cc(Cl)ccc32)C1 [Example 196]",
    "ASSIGNED_LABEL": -1
  },
  {
    "COMPOUND": "C=CC(=O)N1CC(NC(=O)Cn2ccc3cc(Br)c(C)cc32)C1 [Example 186]",
    "ASSIGNED_LABEL": -1
  }
]

Is reported pIC50 greater than or equal to 6 here: C=CC(=O)N1CC(N(C)C(=O)Cn2cc(C(=O)N3CCc4c(cccc4OC)C3)c3cc(Br)ccc32)C1 [Example 107] 1

Given C=CC(=O)N1CC(NC(=O)Cn2c(C)c(-c3ccccc3C(C)C)c3cc(Cl)ccc32)C1 [Example 5-3] , state whether its pIC50 is at least 6. 1

Hello, I need to know if C=CC(=O)N1CC(NC(=O)Cn2cc(I)c3cc(Cl)ccc32)C1 [Example 139] has measured pIC50 not below 6. Thanks! 1

Hello, I need to know if C=CC(=O)N1CC(N(C)C(=O)Cn2c(C)c(C(=O)N3CCN(c4ccc(Br)cn4)CC3)c3cc(Br)ccc32)C1 [Example 21] has measured pIC50 not below 6. Thanks! 1

Please check the record C=CC(=O)N1CC(NC(=O)Cn2cc(C(=O)NCCc3ccc(Cl)cc3Cl)c3cc(Br)ccc32)C1 [Example 161] and state if its pIC50 is at or above 6. 1

Values were extracted from patent US11053226B2.
